Reference source for all entries: ChEMBL document CHEMBL4689842

Tested on: U2OS
TEST_PROTOCOL: Multiplex assay against U2OS
Assay type: toxicity, cell-based
STATED_CONDITIONS: human, 24 h, 1 µM, compound concentration 1 uM, replicate 2
MEASURED_METRIC: Population Hoechst High Intensity Objects (%)
// note: answer is a bare numeric in %

Here are 5 compounds together with their reported answers.
| COMPOUND | TARGET_OR_SYSTEM | OBSERVED_MEASUREMENT |
| --- | --- | --- |
| C=CCn1c(=O)c2cnc(Nc3ccc(N4CCN(C)CC4)cc3)nc2n1-c1cccc(C(C)(C)O)n1 [ADAVOSERTIB] | U2OS | 9 |
| CCc1cccc(CC)c1NC(=O)c1nn(C)c2c1CCc1cnc(Nc3ccc(C(=O)NC4CCN(C)CC4)cc3OC(F)(F)F)nc1-2 | U2OS | 10 |
| Cc1ccc(C(=O)Nc2cccc(C(F)(F)F)c2)cc1Nc1nc(-c2cccnc2)nc2c1cnn2C | U2OS | 3 |
| Cc1cn(-c2cc(NC(=O)c3ccc(C)c(Nc4nccc(-c5cccnc5)n4)c3)cc(C(F)(F)F)c2)cn1 [NILOTINIB] | U2OS | 5 |
| CCn1cc(-c2ccnc3[nH]c(-c4cccc(CN(C)C)c4)cc23)c(-c2ccc(NC(=O)N(C)C)cc2)n1 [GSK-1070916] | U2OS | 18 |

stdin: Give the value of Population Hoechst High Intensity Objects (%) reported for the following: CCCS(=O)(=O)Nc1ccc(F)c(C(=O)c2c[nH]c3ncc(Cl)cc23)c1F [PLX-4720]
stdout: 11

stdin: Give the value of Population Hoechst High Intensity Objects (%) reported for the following: "CNC(=O)c1ccc(Nc2nc(OC3CCCC3)c3c(-c4ccc5nc(C)oc5c4)c[nH]c3n2)c(OC)c1"
stdout: 11

---

Listed next: entries and their corresponding Population Membrane Permeable-Phenotype (%).
Tested on: U2OS
TEST_PROTOCOL: Multiplex assay against U2OS
Assay type: toxicity, cell-based
STATED_CONDITIONS: human, 12 h, 1 µM, compound concentration 1 uM, replicate 1

stdin: Fill in: Population Membrane Permeable-Phenotype (%) on U2OS, entry "O=C(Nc1cccnn1)N1CCC(=Cc2cccc(Oc3ccc(C(F)(F)F)cn3)c2)CC1"
stdout: 33%

stdin: Fill in: Population Membrane Permeable-Phenotype (%) on U2OS, entry "CN[C@@H]1C[C@H]2O[C@@](C)([C@@H]1OC)n1c3ccccc3c3c4c(c5c6ccccc6n2c5c31)C(=O)NC4"
stdout: 89%

stdin: Fill in: Population Membrane Permeable-Phenotype (%) on U2OS, entry "CCCn1c(=O)c2[nH]c(-c3cnn(Cc4cccc(C(F)(F)F)c4)c3)nc2n(CC)c1=O"
stdout: 14%

stdin: Fill in: Population Membrane Permeable-Phenotype (%) on U2OS, entry "CCOc1cc(C(=O)N2CCC(N3CCN(C)CC3)CC2)ccc1Nc1ncc2c(n1)N(C1CCCC1)c1ccccc1C(=O)N2C"
stdout: 8%

stdin: Fill in: Population Membrane Permeable-Phenotype (%) on U2OS, entry "CCn1c(=O)c(-c2ccc(-c3cncs3)cc2Cl)cc2cnc(Nc3ccc(N4CCN(C)CC4)cc3)nc21"
stdout: 11%

stdin: Fill in: Population Membrane Permeable-Phenotype (%) on U2OS, entry "O=C1N/C(=N/c2ccccc2F)S/C1=C\c1ccc(C(=O)O)cc1"
stdout: 6%

stdin: Fill in: Population Membrane Permeable-Phenotype (%) on U2OS, entry "CN1CCN(C(=O)C(C)(C)c2ccc(C(=O)Nc3cn4cc(-c5cc(C(C)(C)C)cc(C(C)(C)C)c5)ccc4n3)cc2)CC1"
stdout: 18%

stdin: Fill in: Population Membrane Permeable-Phenotype (%) on U2OS, entry "Cc1ccc(C(=O)Nc2cccc(C(F)(F)F)c2)cc1Nc1nc(-c2cccnc2)nc2c1cnn2C"
stdout: 8%

---

Listed next: entries and their corresponding Population Healthy Nuclei (%).
Test system: U2OS
TEST_PROTOCOL: Multiplex assay against U2OS
Format: toxicity, cell-based
STATED_CONDITIONS: human, 12 h, 10 µM, compound concentration 10 uM, replicate 1
// note: answer is a bare numeric in %

stdin: Fill in: Population Healthy Nuclei (%) on U2OS, entry "COc1ccc(S(=O)(=O)N(CCO)c2ccccc2CN(C)C/C=C/c2ccc(Cl)cc2)cc1.O=P(O)(O)O"
stdout: 81

stdin: Fill in: Population Healthy Nuclei (%) on U2OS, entry "O=C(Nc1ccc(-n2nc(-c3cccnc3)cc2C(F)(F)F)cn1)c1ccc(-c2ccccc2)c(F)c1"
stdout: 69

stdin: Fill in: Population Healthy Nuclei (%) on U2OS, entry "COc1ccc(-c2ccc3c(N4CCOCC4)nc(N4C[C@@H](C)O[C@@H](C)C4)nc3n2)cc1CO"
stdout: 61

stdin: Fill in: Population Healthy Nuclei (%) on U2OS, entry "C=CCn1c(=O)c2cnc(Nc3ccc(N4CCN(C)CC4)cc3)nc2n1-c1cccc(C(C)(C)O)n1"
stdout: 13

stdin: Fill in: Population Healthy Nuclei (%) on U2OS, entry "O=C(Nc1cccnn1)N1CCC(=Cc2cccc(Oc3ccc(C(F)(F)F)cn3)c2)CC1"
stdout: 92

---

Test system: HEK-293T
TEST_PROTOCOL: Multiplex assay against HEK293T
Format: toxicity, cell-based
STATED_CONDITIONS: human, 24 h, 1 µM, compound concentration 1 uM, replicate 2
Parameter threshold = 4%. Response is t when Population Hoechst High Intensity Objects (%) meets or exceeds it, else f.

Past entries and their recorded results:
| MOLECULE | CLASS_LABEL |
| --- | --- |
| CN(C)C(=O)C(CCN1CCC(O)(c2ccc(Cl)cc2)CC1)(c1ccccc1)c1ccccc1.Cl [LOPERAMIDE HYDROCHLORIDE] | f |
| CN1CCC(=C2c3ccccc3CC(=O)c3sccc32)CC1.O=C(O)/C=C/C(=O)O [KETOTIFEN FUMARATE] | f |
| CNC(=O)c1ccc(Nc2nc(OC3CCCC3)c3c(-c4ccc5nc(C)oc5c4)c[nH]c3n2)c(OC)c1 | t |
| COc1cc(N2CCN(C)CC2)ccc1Nc1ncc2c(n1)N(C)c1ccccc1C(=O)N2C | f |
| O=C(Cc1ccc(-c2ccc(OCCN3CCOCC3)cc2)cn1)NCc1ccccc1 [TIRBANIBULIN] | f |

stdin: Is the recorded value of Population Hoechst High Intensity Objects (%) equal to or greater than 4% for this molecule? CCn1cc(-c2ccnc3[nH]c(-c4cccc(CN(C)C)c4)cc23)c(-c2ccc(NC(=O)N(C)C)cc2)n1 [GSK-1070916]
stdout: t

stdin: Is the recorded value of Population Hoechst High Intensity Objects (%) equal to or greater than 4% for this molecule? CCOC(=O)c1c(C)[nH]c2ccc3c(c12)CN1CCc2cc(OC)ccc2C1O3 (configuration not stated)
stdout: f

stdin: Is the recorded value of Population Hoechst High Intensity Objects (%) equal to or greater than 4% for this molecule? "Cc1ccc(C(=O)Nc2cccc(C(F)(F)F)c2)cc1Nc1nc(-c2cccnc2)nc2c1cnn2C"
stdout: t

stdin: Is the recorded value of Population Hoechst High Intensity Objects (%) equal to or greater than 4% for this molecule? CN[C@@H]1C[C@H]2O[C@@](C)([C@@H]1OC)n1c3ccccc3c3c4c(c5c6ccccc6n2c5c31)C(=O)NC4 [STAUROSPORINE]
stdout: t

stdin: Is the recorded value of Population Hoechst High Intensity Objects (%) equal to or greater than 4% for this molecule? "Cc1cc(C)c(S(=O)(=O)N(Cc2ccc(-c3cccc(S(C)(=O)=O)c3)cc2)Cc2ccc(C(F)(F)F)o2)c(C)c1"
stdout: f

---

Tested on: HEK-293T
TEST_PROTOCOL: Incucyte cell viability with HEK293T; further: filed as whole numbers so only -1 and 0 and 1 occur
Type: toxicity, cell-based
STATED_CONDITIONS: human, 24 h, 10 µM, compound concentration 10 uM, replicate number 1, timepoint 24 hours
Listed next: entries and their corresponding Growth Rate.
The response must contain the number and no unit.

stdin: Give the value of Growth Rate reported for the following: "CC(=O)c1c(NS(C)(=O)=O)c2cc(-c3ccc(Cl)cc3)c(-c3ccc(Cl)cc3Cl)nc2n(C)c1=O"
stdout: 0

stdin: Give the value of Growth Rate reported for the following: "CNC[C@H](O)c1cccc(O)c1"
stdout: 1

stdin: Give the value of Growth Rate reported for the following: "O=C(Nc1cccnn1)N1CC(C/C=C/c2cncc(Oc3ccc(C(F)(F)F)cn3)n2)C1"
stdout: 1

stdin: Give the value of Growth Rate reported for the following: "COC(=N)c1nc2ccc3ncnc(Nc4ccc(OC)cc4F)c3c2s1"
stdout: 0

stdin: Give the value of Growth Rate reported for the following: "NS(=O)(=O)c1c(Cl)ccc(NC(=O)Nc2cccc(Cl)c2Cl)c1O"
stdout: 0

stdin: Give the value of Growth Rate reported for the following: "CO[C@@H](C)c1c(Nc2ccc([C@@H](N(C)C(=O)C3CCS(=O)(=O)CC3)C(F)(F)F)cc2)cnc2cc(Cl)nn12"
stdout: 0

stdin: Give the value of Growth Rate reported for the following: "CCn1c(=O)c(-c2ccc(-c3cncs3)cc2Cl)cc2cnc(Nc3ccc(N4CCN(C)CC4)cc3)nc21"
stdout: 1

stdin: Give the value of Growth Rate reported for the following: "CC[C@@H]1CN2C(=O)N(C)c3nc(-c4ccccc4)[nH]c3C2=N1.Cl"
stdout: 1

stdin: Give the value of Growth Rate reported for the following: "COC1CCN(c2cccc(-c3cc(NC(C)=O)nc(-n4nc(C)cc4C)n3)n2)CC1"
stdout: 0
